biological target: T1, human ActRIIA (human, UniProt P27037 20-135, limits assumed); experiment: MSD-SET
T1 construct: antigen in MSD-SET; also called ACVR2A; ActR2A
T1 sequence (P27037 20-135 limits assumed): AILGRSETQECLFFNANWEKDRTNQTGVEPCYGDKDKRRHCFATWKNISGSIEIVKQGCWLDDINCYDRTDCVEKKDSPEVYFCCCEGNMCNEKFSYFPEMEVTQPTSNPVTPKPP
REPORTED_ENDPOINT: pKd
Schema: pKd number; meaning minus log10 of the concentration expressed in molar units.

Illustrative cases are given below, each with its answer.
Please report the measured pKd for Bebballesgmias Fab (Fab, V domains shown, Fab) VH: QVQLVQSGAEVKKPGSSVKVSCKASGYKFTSSYINWVRQAPGQGLEWMGTINPVSGSTSYAQKFQGRVTITADTSTSTAYMELSSLRSEDTAVYYCARGGWFDYWGQGTLVTVSS VL: QSALTQPRSVSGSPGQSVTISCTGTSSDVGSYNYVNWYQQHPGKAPKLMIYGVSKRPRGVPDRFSGSKSGNTASLTISGLQAEDEADYYCGTFAGGSYYGVFGGGTKLTVL
9.55

Please report the measured pKd for Antibody Schwardamaga (antibody, V domains shown, full-length IgG) VH: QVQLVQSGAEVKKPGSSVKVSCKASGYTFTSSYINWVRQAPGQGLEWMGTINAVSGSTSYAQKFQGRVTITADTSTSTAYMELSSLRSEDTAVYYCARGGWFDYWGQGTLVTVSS VL: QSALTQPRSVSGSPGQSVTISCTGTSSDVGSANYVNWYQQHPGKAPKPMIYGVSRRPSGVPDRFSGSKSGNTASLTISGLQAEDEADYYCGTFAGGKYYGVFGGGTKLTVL
10.39

We next turn to a different binder, shown below.
Please report the measured pKd for Antibody Soidawürstle (antibody, V domains shown, full-length IgG; also called Soidawüsrstel) VH: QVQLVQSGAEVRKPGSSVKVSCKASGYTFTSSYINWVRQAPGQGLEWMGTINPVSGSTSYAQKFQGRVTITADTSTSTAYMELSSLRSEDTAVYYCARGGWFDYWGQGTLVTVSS VL: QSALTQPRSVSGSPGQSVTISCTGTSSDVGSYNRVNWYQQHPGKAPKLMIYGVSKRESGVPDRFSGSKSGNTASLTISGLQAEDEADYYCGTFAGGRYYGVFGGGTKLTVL
10.47
